Measured IC50 (5HT2-Receptor (Rattus norvegicus, UniProt P14842))
Respond numerically; units are nM and should not be typed.

> print(dat)
                                   compound                               target.desc  result.number
1  CN(C(=O)OCCCN1CCC(c2noc3cc(F)ccc23)CC1)c1ccccc1 [Example 3]  5HT2-Receptor (Rattus norvegicus, UniProt P14842)            6.9

Continue with the next compound.
Please tell me: IC50 of CCN(C(=O)OCCCN1CCC(c2noc3cc(F)ccc23)CC1)c1ccc2c(c1)OCO2 [Example 2] , system 5HT2-Receptor (Rattus norvegicus, UniProt P14842)? 6.7

Origin of the recorded values: patent US5478845A
